Each entry below carries its reported TGI.
system: SF-539 CNS; assay: NCI tumour cell line growth inhibition, 48 h

Lookup: Return reported TGI; argument: CC(C)(C)CC(N)=O
Found: > 100 µM

Lookup: Return reported TGI; argument: CSc1nc2c(ncn2C2OCC(O)C(O)C2O)c(=O)n1C (configuration not stated)
Found: > 100 µM

Lookup: Return reported TGI; argument: O=C(O)C12CCCCC1CCCC2 (configuration not stated)
Found: > 100 µM

Lookup: Return reported TGI; argument: Cn1c(=O)sc2cc(C(=S)N3CCC(Cc4ccccc4)CC3)ccc21
Found: > 100 µM

Lookup: Return reported TGI; argument: CC1=CC(=O)CC(C)(C)C1/C=C/C(C)=C/C=C/C(C)=C/C=C/C=C(C)/C=C/C=C(C)/C=C/C1=C(C)CC(O)CC1(C)C (configuration not stated)
Found: > 100 µM

Lookup: Return reported TGI; argument: COc1cccc(N(CN2C(=O)CCC2C(=O)O)C(C)=O)c1 (configuration not stated)
Found: > 100 µM

Lookup: Return reported TGI; argument: COc1cc([N+](=O)[O-])c(OC)cc1-c1nc2sc(Cl)cn2c1/C=N/NC1=NCCN1
Found: 0.352 µM

Lookup: Return reported TGI; argument: Oc1cc2ccccc2c(-c2c(O)c(O)cc3ccccc23)c1O
Found: 5.46 µM

Lookup: Return reported TGI; argument: Ic1cc2c(cc1C1SCCCS1)OCO2
Found: > 100 µM
